# key: entry, value: IC50
Test system: macrophages
Assay: Macrophage cytotoxicity (MTT assay, 72 h)
Format: cell-based, BALB/c mice
Conditions: Mus musculus, IC50 ± SD

Compound	IC50
CC(C)Cc1ccc(CC(C)C=O)cc1 (centres unmarked) [Silvial^TM, reference compound]	> 97.9 µM
CN(C)c1ccc(/C=C/C=N/NC(=O)c2ccccc2F)cc1	> 64.2 µM
CC(C)Cc1ccc(CC(C)/C=N/NC(=O)c2ccccc2F)cc1 (centres unmarked)	> 58.8 µM
CC(C)Cc1ccc(CC(C)/C=N/NC(=O)c2cccc(Cl)c2)cc1 (centres unmarked)	> 56 µM
CC(C)c1cccc(C(C)C/C=N/NC(=O)c2cccc(O)c2)c1 (centres unmarked)	> 61.7 µM

---

System: L. major promastigotes
Experiment: Leishmania major promastigote assay (MTT, 72 h)
Assay type: cell-based
Details: Leishmania major, 72 h, IC50 ± SD, MTT
pIC50: −log10 of the molar value.

Molecule	Measured Target	pIC50
C(=C\c1ccccc1)/C=N/Nc1ccccc1 [CPH, Cinnamaldehyde phenyl hydrazone, reference compound]	L. major promastigotes	4.08
CN(C)c1ccc(/C=C/C=N/NC(=O)c2ccncc2)cc1 [Compound 2m]	L. major promastigotes	< 4.35
CN(C)c1ccc(/C=C/C=N/NC(=O)c2cccc(F)c2)cc1 [Compound 2j]	L. major promastigotes	< 4.37
CC(C)Cc1ccc(CC(C)/C=N/NC(=O)c2ccccc2O)cc1 (stereo not shown) [Compound 3b]	L. major promastigotes	< 4.23
CC(C)Cc1ccc(CC(C)C=O)cc1 (stereo not shown) [Silvial^TM, reference compound]	L. major promastigotes	< 4.01
O=C(N/N=C/C=C/c1ccccc1)c1ccccc1O [Compound 2c]	L. major promastigotes	4.32
CC(C)Cc1ccc(CC(C)/C=N/NC(=O)c2cc3ccccc3cc2O)cc1 (stereo not shown) [Compound 3a]	L. major promastigotes	< 4.29
